Assay: Population pharmacokinetic model of selumetinib and N‐desmethyl‐selumetinib
Assay type: in vivo, human
Details: human, plasma, oral, θ4 Apparent drug volume of distribution for central compartment (V2/F), parameter estimate, final model

>  <smiles_data>
Cn1cnc2c(F)c(Nc3ccc(Br)cc3Cl)c(C(=O)NOCCO)cc21

>  <Vd/F, L>
32.6

$$$$
